- system: human SLC19A2 (Homo sapiens)
- experiment summary: Microscale thermophoresis
- Assay type: binding
- measurement context: MST, pH 6.0
pKd: −log10 of the molar value.
reported metric: pKd

Cc1ncc(C[n+]2csc(CCO)c2C)c(N)n1; ~5.92

----------
- system: human SLC19A3 (Homo sapiens, UniProt Q9BZV2)
- Sequence (Q9BZV2 whole entry): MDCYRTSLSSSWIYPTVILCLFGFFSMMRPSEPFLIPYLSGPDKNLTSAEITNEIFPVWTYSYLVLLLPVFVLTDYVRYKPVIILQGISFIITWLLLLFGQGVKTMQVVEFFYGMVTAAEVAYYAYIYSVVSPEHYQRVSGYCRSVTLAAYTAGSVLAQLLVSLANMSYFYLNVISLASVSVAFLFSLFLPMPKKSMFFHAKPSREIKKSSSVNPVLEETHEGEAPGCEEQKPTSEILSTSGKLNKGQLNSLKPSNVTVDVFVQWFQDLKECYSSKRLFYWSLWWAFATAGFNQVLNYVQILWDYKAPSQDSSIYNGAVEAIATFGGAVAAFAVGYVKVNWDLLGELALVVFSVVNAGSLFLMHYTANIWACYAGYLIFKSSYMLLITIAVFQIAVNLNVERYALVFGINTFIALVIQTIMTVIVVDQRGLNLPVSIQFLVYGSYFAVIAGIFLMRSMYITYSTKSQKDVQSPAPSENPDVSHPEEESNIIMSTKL
- experiment summary: Microscale thermophoresis
- Type: binding
- measurement context: Kd, MST, pH 6.0
Kd by entry:
reported metric: Kd

CCCc1ncc(C[n+]2ccccc2C)c(N)n1; ~450 nM
Cc1ncc(C[n+]2csc(CCO)c2C)c(N)n1; ~250 nM

----------
- system: human SLC19A2 (Homo sapiens, UniProt O60779)
- Sequence (O60779 whole entry): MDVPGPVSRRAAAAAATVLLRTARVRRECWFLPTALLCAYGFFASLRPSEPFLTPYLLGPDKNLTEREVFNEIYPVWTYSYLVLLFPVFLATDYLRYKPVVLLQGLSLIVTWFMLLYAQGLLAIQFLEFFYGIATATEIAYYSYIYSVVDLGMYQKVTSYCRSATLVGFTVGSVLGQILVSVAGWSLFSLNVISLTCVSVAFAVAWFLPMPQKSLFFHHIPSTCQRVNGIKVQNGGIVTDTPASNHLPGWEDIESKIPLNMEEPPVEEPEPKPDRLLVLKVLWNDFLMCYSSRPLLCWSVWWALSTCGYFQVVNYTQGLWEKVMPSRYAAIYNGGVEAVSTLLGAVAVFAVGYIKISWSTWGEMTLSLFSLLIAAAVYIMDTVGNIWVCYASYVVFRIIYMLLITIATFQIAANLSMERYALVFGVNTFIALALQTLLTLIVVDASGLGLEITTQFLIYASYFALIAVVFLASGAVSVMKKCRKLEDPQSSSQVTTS
- experiment summary: Microscale thermophoresis
- Type: binding
- measurement context: MST, pH 7.5
pKd: −log10 of the molar value.
reported metric: pKd

Cc1ncc(C[n+]2csc(CCO)c2C)c(N)n1 [thiamine]; ~4.11
